EC50 for assorted compounds
testedTarget: GLP-1R (Rattus norvegicus, UniProt P32301)
Construct: stably transfected with the expression vector of GLP-1R gene
Sequence (P32301 22-463): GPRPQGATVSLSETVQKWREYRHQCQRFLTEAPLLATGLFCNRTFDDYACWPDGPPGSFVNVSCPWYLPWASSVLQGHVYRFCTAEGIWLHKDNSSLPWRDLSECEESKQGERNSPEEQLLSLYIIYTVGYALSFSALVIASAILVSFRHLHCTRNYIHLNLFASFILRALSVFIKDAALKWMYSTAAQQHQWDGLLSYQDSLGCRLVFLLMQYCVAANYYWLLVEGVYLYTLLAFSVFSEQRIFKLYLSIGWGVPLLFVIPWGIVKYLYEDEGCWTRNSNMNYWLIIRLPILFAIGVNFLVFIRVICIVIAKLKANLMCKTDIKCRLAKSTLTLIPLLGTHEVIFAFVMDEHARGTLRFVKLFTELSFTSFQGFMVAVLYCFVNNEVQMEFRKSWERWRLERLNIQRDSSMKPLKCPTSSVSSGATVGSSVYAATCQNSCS
procedureText: Expression of the luciferase report gene in HEK 293/GLP1R+Luc cells
Type: cell-based, human
testSettings: luciferase report gene, HEK 293/GLP1R+Luc cells, 6 hours
property: EC50 (µM)

[[record]]
compound = "COc1cc(/C=C2/N=C(c3ccc(NC(C)=O)cc3)OC2=O)ccc1OC(=O)c1cccs1 [wang462]"
recordedresult = 11.6

[[record]]
compound = "COc1cc(/C=C2/N=C(c3ccc(NC(=O)C(C)(C)C)cc3)OC2=O)ccc1OC(=O)c1cccs1 [wang504]"
recordedresult = 4.87

[[record]]
compound = "COc1cc(C=C2N=C(c3ccc(NC(=O)C4CCCC4)cc3)OC2=O)ccc1OC(=O)c1cccs1 [wang516]"
recordedresult = 6.85

